# assay_target: Full length human recombinant HDAC6 protein (Homo sapiens, UniProt Q9UBN7)
# Sequence (Q9UBN7 1-1215): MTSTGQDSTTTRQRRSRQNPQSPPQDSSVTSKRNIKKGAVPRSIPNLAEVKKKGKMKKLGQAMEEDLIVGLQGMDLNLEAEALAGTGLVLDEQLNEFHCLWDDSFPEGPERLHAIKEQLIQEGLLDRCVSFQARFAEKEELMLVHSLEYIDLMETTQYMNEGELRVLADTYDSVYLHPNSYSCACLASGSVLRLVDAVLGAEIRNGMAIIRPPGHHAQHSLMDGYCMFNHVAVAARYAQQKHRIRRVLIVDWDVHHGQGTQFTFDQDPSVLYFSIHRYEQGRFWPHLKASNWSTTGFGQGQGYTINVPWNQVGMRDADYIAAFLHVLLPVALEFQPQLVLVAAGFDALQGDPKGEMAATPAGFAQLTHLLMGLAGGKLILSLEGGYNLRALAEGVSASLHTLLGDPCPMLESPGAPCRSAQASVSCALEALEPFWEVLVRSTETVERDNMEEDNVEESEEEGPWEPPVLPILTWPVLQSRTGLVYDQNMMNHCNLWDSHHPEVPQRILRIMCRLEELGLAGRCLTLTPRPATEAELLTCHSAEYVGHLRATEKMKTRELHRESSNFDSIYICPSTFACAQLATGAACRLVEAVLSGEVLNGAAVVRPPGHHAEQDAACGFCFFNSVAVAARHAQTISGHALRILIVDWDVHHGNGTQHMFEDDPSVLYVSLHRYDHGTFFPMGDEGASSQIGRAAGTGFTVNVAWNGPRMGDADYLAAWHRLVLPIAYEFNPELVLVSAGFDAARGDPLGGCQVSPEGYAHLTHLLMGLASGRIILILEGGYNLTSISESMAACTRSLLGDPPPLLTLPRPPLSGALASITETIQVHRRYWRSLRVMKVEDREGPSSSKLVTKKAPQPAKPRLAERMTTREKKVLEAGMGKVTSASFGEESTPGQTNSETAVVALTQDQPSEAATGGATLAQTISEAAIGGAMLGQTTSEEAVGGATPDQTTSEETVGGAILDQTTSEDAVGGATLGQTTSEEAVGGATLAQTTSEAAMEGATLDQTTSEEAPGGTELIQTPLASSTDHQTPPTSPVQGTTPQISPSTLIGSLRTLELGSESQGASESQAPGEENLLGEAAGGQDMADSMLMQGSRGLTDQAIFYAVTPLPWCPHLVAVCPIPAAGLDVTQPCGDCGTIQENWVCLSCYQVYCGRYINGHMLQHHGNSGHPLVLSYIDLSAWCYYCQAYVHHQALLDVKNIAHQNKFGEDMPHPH
# assay_comment: In vitro histone deacetylase assay: enzymatic HDAC6 electrophoretic mobility shift assay
# measurement_conditions: 1 nM enzyme, 2 μM peptide substrate RHKK(Ac)-NH2, 25° C., 12 concentrations; read-out: Inhibitory Concentration (IC50) Values against HDAC6, Activity Range
# Method: The enzymatic HDAC6 assay was performed using electrophoretic mobility shift assay. […] The terminated assay plates were analyzed on LabChip® 3000 microfluidic electrophoresis instrument (Perkin Elmer/Caliper Life Sciences). The fluorescence intensity of the electrophoretically separated de-acetylated product and substrate peptide was measured. […] Percent inhibition (Pinh) is determined using the following equation: […]
pIC50: −log10 of the molar value.
Readings of pIC50 for the listed compounds
reported_property: pIC50

[[record]]
compound = "COC[C@H]1COc2cc(C(=O)NO)ccc2CN1C(=O)C1CCOCC1"
reported_property = "pIC50"
value = "≥ 7.00"

[[record]]
compound = "CCC1(C(=O)N2Cc3ccc(C(=O)NO)cc3OC[C@@H]2C)COC1"
reported_property = "pIC50"
value = "≥ 7.00"

[[record]]
compound = "O=C(NO)c1ccc2c(c1)OCCN(C(=O)C(OC1CCOCC1)c1ccccc1)C2 (centres unmarked)"
reported_property = "pIC50"
value = "< 6.30"

[[record]]
compound = "CC(C)(C(=O)N1CCOc2cc(C(=O)NO)ccc2C1)c1ccc2ccccc2c1"
reported_property = "pIC50"
value = "6.30 to 7.00"

[[record]]
compound = "CC(C)(O)C(=O)N1CCOc2cc(C(=O)NO)ccc2C1"
reported_property = "pIC50"
value = "6.30 to 7.00"


---

# assay_target: Full length human recombinant HDAC6 protein (Homo sapiens, UniProt Q9UBN7)
# Sequence (Q9UBN7 1-1215): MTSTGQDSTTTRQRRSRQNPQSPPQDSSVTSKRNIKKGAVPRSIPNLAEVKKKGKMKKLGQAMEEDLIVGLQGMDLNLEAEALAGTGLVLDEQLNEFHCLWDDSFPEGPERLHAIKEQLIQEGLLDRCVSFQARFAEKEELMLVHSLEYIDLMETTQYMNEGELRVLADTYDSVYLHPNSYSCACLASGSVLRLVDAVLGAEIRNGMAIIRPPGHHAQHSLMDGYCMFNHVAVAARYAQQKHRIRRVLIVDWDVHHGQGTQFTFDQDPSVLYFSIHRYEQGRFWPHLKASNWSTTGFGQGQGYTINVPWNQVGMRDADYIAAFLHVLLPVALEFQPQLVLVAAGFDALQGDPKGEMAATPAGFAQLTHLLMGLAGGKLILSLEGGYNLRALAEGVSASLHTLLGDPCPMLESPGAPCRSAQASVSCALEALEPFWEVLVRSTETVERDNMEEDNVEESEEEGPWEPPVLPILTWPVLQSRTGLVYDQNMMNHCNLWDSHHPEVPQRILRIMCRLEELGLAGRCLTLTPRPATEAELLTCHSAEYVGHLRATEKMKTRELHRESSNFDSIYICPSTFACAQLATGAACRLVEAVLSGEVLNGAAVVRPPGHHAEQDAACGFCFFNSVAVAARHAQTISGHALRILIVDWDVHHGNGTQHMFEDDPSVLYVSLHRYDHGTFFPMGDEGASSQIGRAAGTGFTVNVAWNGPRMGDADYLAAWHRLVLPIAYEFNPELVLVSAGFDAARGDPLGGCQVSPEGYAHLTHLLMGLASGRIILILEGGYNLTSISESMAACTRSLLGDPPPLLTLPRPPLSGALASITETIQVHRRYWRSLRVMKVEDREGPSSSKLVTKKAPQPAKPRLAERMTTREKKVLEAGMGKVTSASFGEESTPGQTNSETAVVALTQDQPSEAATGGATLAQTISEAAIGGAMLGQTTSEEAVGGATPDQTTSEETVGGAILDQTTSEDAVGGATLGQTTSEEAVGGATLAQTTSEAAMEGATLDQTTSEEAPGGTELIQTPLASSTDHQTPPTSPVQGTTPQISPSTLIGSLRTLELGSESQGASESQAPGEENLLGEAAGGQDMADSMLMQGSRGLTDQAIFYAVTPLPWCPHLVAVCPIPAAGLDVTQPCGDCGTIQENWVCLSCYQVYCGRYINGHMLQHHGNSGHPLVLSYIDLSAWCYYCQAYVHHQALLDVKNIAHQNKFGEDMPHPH
# assay_comment: In vitro histone deacetylase assay: enzymatic HDAC6 electrophoretic mobility shift assay
# measurement_conditions: 1 nM enzyme, 2 μM peptide substrate RHKK(Ac)-NH2, 25° C., 12 concentrations; read-out: Inhibitory Concentration (IC50) Values against HDAC6, Activity Range
Attribute: IC50
reported_property: IC50

[[record]]
molecule = "C[C@H]1COc2cc(C(=O)NO)ccc2CN1C(=O)[C@@H]1CCOC(C)(C)C1"
reported_property = "IC50"
value = "≤ 100 nM"

[[record]]
molecule = "C[C@H]1COc2cc(C(=O)NO)ccc2CN1C(=O)[C@]1(C)CCCCO1"
reported_property = "IC50"
value = "≤ 100 nM"

[[record]]
molecule = "CCC1(C(=O)N2CCOc3cc(C(=O)NO)ccc3C2)COC1"
reported_property = "IC50"
value = "≤ 100 nM"

[[record]]
molecule = "CC(Oc1ccccc1)C(=O)N1CCOc2cc(C(=O)NO)ccc2C1 (stereo not shown)"
reported_property = "IC50"
value = "100 to 500 nM"

[[record]]
molecule = "O=C(NO)c1ccc2c(c1)OCCN(C(=O)CCc1ccccc1)C2"
reported_property = "IC50"
value = "≤ 100 nM"

[[record]]
molecule = "CCC(C(=O)N1CCOc2cc(C(=O)NO)ccc2C1)c1ccccc1 (stereo not shown)"
reported_property = "IC50"
value = "100 to 500 nM"

[[record]]
molecule = "CC1CC(C(=O)N2Cc3ccc(C(=O)NO)cc3OC[C@@H]2C)CC(C)O1 (stereo partly shown)"
reported_property = "IC50"
value = "≤ 100 nM"

[[record]]
molecule = "CC(C)(C(=O)N1CCOc2cc(C(=O)NO)ccc2C1)c1ccc2c(c1)OCCO2"
reported_property = "IC50"
value = "100 to 500 nM"

[[record]]
molecule = "O=C(NO)c1ccc2c(c1)OCCN(C(=O)c1ccc(C(F)(F)F)cc1)C2"
reported_property = "IC50"
value = "100 to 500 nM"

[[record]]
molecule = "C[C@@H](C(=O)N1CCOc2cc(C(=O)NO)ccc2C1)c1ccccc1"
reported_property = "IC50"
value = "> 500 nM"

